tested target: hOT7T175 (Homo sapiens, UniProt Q969F8, L364H)
Sequence (Q969F8 whole entry L364H): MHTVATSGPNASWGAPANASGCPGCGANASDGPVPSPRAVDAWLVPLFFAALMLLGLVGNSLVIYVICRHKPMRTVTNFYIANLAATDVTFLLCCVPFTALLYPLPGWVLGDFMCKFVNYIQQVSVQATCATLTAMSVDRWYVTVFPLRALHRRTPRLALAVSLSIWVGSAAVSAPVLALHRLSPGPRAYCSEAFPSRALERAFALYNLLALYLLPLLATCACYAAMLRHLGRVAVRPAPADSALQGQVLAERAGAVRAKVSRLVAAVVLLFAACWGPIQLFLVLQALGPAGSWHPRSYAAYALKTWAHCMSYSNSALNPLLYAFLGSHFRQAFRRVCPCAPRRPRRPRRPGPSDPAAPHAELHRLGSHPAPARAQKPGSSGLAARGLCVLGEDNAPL
method notes: Intracellular Ca ion level-increasing activity using FLIPR in hOT7T175/CHO
Assay type: cell-based
Set-up: expressed in transfected cells; host or cells: CHO/dhfr- cells, obtained from ATCC
condition context: relative, Metastin (1-54) = 1
Square brackets hold non-standard residues; d marks the D form. Peptide text beside a SMILES is read from it. Arg(Me) = CNC(=N)NCCC[C@H](N)C(=O)O; d4Pal = N[C@H](Cc1ccncc1)C(=O)O; azaGly = NNC(=O)O
Reported Specific Activity (intracellular Ca ion level-increasing activity) by item:
experimental endpoint: Specific Activity (intracellular Ca ion level-increasing activity)

| compound | tested target | obs value |
| --- | --- | --- |
| CC(C)C[C@H](NC(=O)[C@H](C)NC(=O)[C@H](Cc1ccccc1)NC(=O)[C@H](CO)NC(=O)[C@H](CC(N)=O)NC(=O)[C@H](Cc1c[nH]c2ccccc12)NC(=O)[C@H](CC(N)=O)NC(=O)[C@@H](N)Cc1ccc(O)cc1)C(=O)N[C@@H](CCCNC(=N)N)C(=O)N[C@@H](Cc1ccccc1)C(N)=O [Compound No. 50] (H-YNWNSFALRF-NH2) | hOT7T175 (Homo sapiens, UniProt Q969F8, L364H) | 30 |
| CNC(=N)NCCC[C@H](NC(=O)[C@H](CC(C)C)NC(=O)CNC(=O)[C@H](Cc1ccccc1)NC(=O)[C@H](CO)NC(=O)[C@H](CC(N)=O)NC(=O)[C@H](Cc1c[nH]c2ccccc12)NC(=O)[C@H](CCC(N)=O)NC(=O)[C@H](N)Cc1ccc(O)cc1)C(=O)N[C@@H](Cc1ccccc1)C(N)=O [Compound No. 214] (H-[dY]QWNSFGL[Arg(Me)]F-NH2) | hOT7T175 (Homo sapiens, UniProt Q969F8, L364H) | 10 |
| CNC(=N)NCCC[C@H](NC(=O)[C@H](CC(C)C)NC(=O)CNC(=O)[C@H](Cc1ccccc1)NC(=O)[C@H](C)NC(=O)[C@H](CC(N)=O)NC(=O)[C@H](Cc1c[nH]c2ccccc12)NC(=O)[C@H](CC(N)=O)NC(=O)[C@H](N)Cc1ccc(O)cc1)C(=O)N[C@@H](Cc1ccccc1)C(N)=O [Compound No. 212] (H-[dY]NWNAFGL[Arg(Me)]F-NH2) | hOT7T175 (Homo sapiens, UniProt Q969F8, L364H) | 10 |
| CNC(=N)NCCC[C@H](NC(=O)[C@H](CC(C)C)NC(=O)NNC(=O)[C@H](Cc1ccccc1)NC(=O)[C@H](CO)NC(=O)[C@H](CC(N)=O)NC(=O)[C@H](Cc1c[nH]c2ccccc12)NC(=O)[C@H](CC(N)=O)NC(=O)[C@H](N)Cc1ccc(O)cc1)C(=O)N[C@@H](Cc1ccccc1)C(N)=O [Compound No. 232] | hOT7T175 (Homo sapiens, UniProt Q969F8, L364H) | 3 |
| CNC(=N)NCCC[C@H](NC(=O)[C@H](CC(C)C)NC(=O)NNC(=O)[C@H](Cc1ccccc1)NC(=O)[C@H](CO)NC(=O)[C@H](CC(N)=O)NC(=O)[C@@H](Cc1ccncc1)NC(=O)[C@H](N)Cc1ccc(O)cc1)C(=O)N[C@@H](Cc1ccccc1)C(N)=O [Compound No. 305] (H-[dY][d4Pal]NSF[azaGly]L[Arg(Me)]F-NH2) | hOT7T175 (Homo sapiens, UniProt Q969F8, L364H) | 5 |

These measurements were taken from patent US8361968B2.
